- TARGET OF ASSAY: LFA-1 on mouse L1210 T-cells (mouse, UniProt P24063 24-1162; P11835 24-771)
- Sequence (P24063 24-1162, chain 1 of 2): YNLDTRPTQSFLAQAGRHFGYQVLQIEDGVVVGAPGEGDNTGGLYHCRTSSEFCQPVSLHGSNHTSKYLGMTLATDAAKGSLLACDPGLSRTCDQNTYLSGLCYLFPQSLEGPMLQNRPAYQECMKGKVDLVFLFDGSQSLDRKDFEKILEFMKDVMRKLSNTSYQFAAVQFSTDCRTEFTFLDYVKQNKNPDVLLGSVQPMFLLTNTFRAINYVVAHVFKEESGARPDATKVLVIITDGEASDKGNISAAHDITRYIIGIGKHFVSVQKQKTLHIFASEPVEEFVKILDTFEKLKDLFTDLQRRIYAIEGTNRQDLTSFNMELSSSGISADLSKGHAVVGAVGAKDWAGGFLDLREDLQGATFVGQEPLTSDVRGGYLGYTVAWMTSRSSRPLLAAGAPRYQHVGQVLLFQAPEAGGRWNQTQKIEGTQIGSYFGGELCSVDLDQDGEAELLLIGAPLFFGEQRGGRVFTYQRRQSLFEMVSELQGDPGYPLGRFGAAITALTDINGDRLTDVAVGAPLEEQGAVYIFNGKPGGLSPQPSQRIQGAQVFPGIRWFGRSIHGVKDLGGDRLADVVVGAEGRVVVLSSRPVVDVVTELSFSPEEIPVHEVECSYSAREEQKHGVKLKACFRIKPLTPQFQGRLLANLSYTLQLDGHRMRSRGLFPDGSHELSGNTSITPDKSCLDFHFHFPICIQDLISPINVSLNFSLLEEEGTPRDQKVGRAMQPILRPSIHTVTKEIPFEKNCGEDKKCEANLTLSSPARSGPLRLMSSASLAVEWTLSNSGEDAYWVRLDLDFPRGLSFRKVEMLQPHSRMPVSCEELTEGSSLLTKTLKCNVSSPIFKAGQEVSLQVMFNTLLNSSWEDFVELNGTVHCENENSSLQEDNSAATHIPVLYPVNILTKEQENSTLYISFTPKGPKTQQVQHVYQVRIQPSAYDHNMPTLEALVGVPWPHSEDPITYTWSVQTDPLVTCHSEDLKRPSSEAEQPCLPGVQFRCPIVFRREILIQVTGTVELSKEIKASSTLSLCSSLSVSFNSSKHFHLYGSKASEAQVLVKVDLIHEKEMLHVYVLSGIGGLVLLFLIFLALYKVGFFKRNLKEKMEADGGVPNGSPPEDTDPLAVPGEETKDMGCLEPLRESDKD
- Sequence (P11835 24-771, chain 2 of 2): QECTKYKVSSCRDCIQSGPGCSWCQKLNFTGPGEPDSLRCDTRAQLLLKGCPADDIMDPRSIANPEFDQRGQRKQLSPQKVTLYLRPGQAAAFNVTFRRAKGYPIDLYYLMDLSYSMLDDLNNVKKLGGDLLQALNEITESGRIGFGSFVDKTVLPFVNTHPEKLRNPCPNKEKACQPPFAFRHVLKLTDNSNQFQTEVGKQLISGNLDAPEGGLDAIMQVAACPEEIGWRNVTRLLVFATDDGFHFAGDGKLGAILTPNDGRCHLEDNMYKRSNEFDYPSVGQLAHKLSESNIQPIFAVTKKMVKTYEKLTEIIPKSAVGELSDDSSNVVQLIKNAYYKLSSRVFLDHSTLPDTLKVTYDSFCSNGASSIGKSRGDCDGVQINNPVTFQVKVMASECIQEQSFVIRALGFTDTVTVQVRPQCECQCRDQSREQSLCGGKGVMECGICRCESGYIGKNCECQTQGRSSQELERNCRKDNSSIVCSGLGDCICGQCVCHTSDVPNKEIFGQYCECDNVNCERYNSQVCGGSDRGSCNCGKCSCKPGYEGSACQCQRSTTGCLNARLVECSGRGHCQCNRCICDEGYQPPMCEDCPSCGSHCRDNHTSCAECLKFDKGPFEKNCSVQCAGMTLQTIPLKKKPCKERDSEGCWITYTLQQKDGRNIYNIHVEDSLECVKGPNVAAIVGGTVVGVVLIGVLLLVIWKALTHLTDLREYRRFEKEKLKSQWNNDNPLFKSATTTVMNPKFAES
- METHOD: cell-based or functional assay
No end group written: not given here. *: point of attachment. MTX = methotrexate, its gamma-carboxylic acid amide-linked to the peptide N-terminus, CN(Cc1cnc2nc(N)nc(N)c2n1)c1ccc(C(=O)N[C@@H](CCC(=O)*)C(=O)O)cc1
MEASURE NAME: IC50 in micromolar, growth inhibition, L1210 mouse leukemia cells (µM)

{MTX}-VILPRG-NH2 [MTX-VILPRG] : 0.7

a. {MTX}-LPRGGSVLVT (also: cyclic peptide, ring closure not given here) [MTX-cIBR conjugate (methotrexate-cyclo-Leu Pro Arg Gly Gly Ser Val Leu Val Thr)]
b. {MTX}-PRGGSV-NH2 [MTX-PRGGSV]
Request: Endpoint returns whichever of a and b has the numerically higher IC50 in micromolar, growth inhibition, L1210 mouse leukemia cells. When you have decided, please share the label of that item.
Result: a
(a: 5.5 µM, b: 1.6 µM)
